pIC50: −log10 of the molar value.
Reported values: pIC50 for Acetylcholinesterase (Homo sapiens, UniProt P22303), one per item.
measured metric: pIC50

smiles structure	target of assay	measured metric	quantitative readout
O=C(CCN1CCOCC1)Nc1n[nH]c2ncccc12	Acetylcholinesterase (Homo sapiens, UniProt P22303)	pIC50	6.56
Cc1ccc2nc3c(c(NCCN4CCN(C)CC4)c2c1)CCCC3	Acetylcholinesterase (Homo sapiens, UniProt P22303)	pIC50	6.01
CC(=O)Nc1ccc2nc3c(c(N4CCOCC4)c2c1)CCCC3	Acetylcholinesterase (Homo sapiens, UniProt P22303)	pIC50	5.95
Cc1ccc2nc3c(c(Nc4[nH]nc5ncccc45)c2c1)CCCC3	Acetylcholinesterase (Homo sapiens, UniProt P22303)	pIC50	6.09
O=C(CN1CCN(Cc2ccccc2)CC1)Nc1n[nH]c2ncccc12	Acetylcholinesterase (Homo sapiens, UniProt P22303)	pIC50	6.52
CC(=O)Nc1ccc2nc3c(c(N4CCCCC4)c2c1)CCCC3	Acetylcholinesterase (Homo sapiens, UniProt P22303)	pIC50	6.52
O=C(CCN1CCN(c2ccccc2)CC1)Nc1n[nH]c2ncccc12	Acetylcholinesterase (Homo sapiens, UniProt P22303)	pIC50	6.64
Cc1ccc2nc3c(c(NCCCl)c2c1)CCCC3	Acetylcholinesterase (Homo sapiens, UniProt P22303)	pIC50	6.12
Cc1ccc2nc3c(c(NCCO)c2c1)CCCC3	Acetylcholinesterase (Homo sapiens, UniProt P22303)	pIC50	6.74
Cc1ccc2nc3c(c(N4CCOCC4)c2c1)CCCC3	Acetylcholinesterase (Homo sapiens, UniProt P22303)	pIC50	5.75
Cc1ccc2nc3c(c(NCCN4CCN(Cc5ccccc5)CC4)c2c1)CCCC3	Acetylcholinesterase (Homo sapiens, UniProt P22303)	pIC50	5.20
O=[N+]([O-])c1ccc2nc3c(c(Nc4[nH]nc5ncccc45)c2c1)CCCC3	Acetylcholinesterase (Homo sapiens, UniProt P22303)	pIC50	6.52
Cc1ccc2nc3c(c(N4CCN(c5c6c(nc7ccc(C)cc57)CCCC6)CC4)c2c1)CCCC3	Acetylcholinesterase (Homo sapiens, UniProt P22303)	pIC50	6.28
O=C(CN1CCN(c2ccccc2)CC1)Nc1n[nH]c2ncccc12	Acetylcholinesterase (Homo sapiens, UniProt P22303)	pIC50	5.71
O=[N+]([O-])c1ccc2nc3c(c(N4CCCCC4)c2c1)CCCC3	Acetylcholinesterase (Homo sapiens, UniProt P22303)	pIC50	5.72
Nc1nn(-c2c3c(nc4ccc([N+](=O)[O-])cc24)CCCC3)c2ncccc12	Acetylcholinesterase (Homo sapiens, UniProt P22303)	pIC50	7.25
Cc1ccc2nc3c(c(N4CCN(C)CC4)c2c1)CCCC3	Acetylcholinesterase (Homo sapiens, UniProt P22303)	pIC50	6.36
CN1CCN(CCC(=O)Nc2n[nH]c3ncccc23)CC1	Acetylcholinesterase (Homo sapiens, UniProt P22303)	pIC50	6.07
CN1CCN(c2c3c(nc4ccc([N+](=O)[O-])cc24)CCCC3)CC1	Acetylcholinesterase (Homo sapiens, UniProt P22303)	pIC50	6.61
O=C(CCN1CCCCC1)Nc1n[nH]c2ncccc12	Acetylcholinesterase (Homo sapiens, UniProt P22303)	pIC50	6.18
O=C(CCN1CCN(Cc2ccccc2)CC1)Nc1n[nH]c2ncccc12	Acetylcholinesterase (Homo sapiens, UniProt P22303)	pIC50	7.47
Cc1ccc2nc3c(c(N4CCCCC4)c2c1)CCCC3	Acetylcholinesterase (Homo sapiens, UniProt P22303)	pIC50	6.93

====

Target: Amyloid-beta precursor protein (Homo sapiens, UniProt P05067)
Sequence (P05067 whole entry): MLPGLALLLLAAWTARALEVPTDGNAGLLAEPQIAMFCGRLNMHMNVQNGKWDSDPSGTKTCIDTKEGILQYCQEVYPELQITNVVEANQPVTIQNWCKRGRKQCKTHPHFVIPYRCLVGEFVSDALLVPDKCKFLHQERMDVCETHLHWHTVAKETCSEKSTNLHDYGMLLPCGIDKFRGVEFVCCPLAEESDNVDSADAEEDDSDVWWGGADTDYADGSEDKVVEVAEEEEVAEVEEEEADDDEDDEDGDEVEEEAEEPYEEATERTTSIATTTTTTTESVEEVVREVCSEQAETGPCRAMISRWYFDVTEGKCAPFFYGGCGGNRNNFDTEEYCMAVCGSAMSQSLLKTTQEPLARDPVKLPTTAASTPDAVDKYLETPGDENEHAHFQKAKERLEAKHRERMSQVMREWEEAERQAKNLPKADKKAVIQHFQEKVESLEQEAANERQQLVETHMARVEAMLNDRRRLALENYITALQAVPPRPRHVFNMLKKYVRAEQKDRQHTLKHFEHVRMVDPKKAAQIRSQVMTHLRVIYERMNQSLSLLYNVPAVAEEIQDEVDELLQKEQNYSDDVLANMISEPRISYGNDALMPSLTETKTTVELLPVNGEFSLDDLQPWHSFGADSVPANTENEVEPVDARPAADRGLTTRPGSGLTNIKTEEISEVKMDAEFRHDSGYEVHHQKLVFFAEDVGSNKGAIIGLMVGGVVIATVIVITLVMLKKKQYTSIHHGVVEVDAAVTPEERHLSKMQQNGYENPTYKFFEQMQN
Assay: Inhibition of amyloid beta (1 to 42 ) (unknown origin) self aggregation at 25 uM measured after 3 hrs by ThT fluorescence assay relative to control

smiles structure	inhibition, %
CC(=O)Nc1ccc2nc3c(c(N4CCCCC4)c2c1)CCCC3	77.3
Cc1ccc2nc3c(c(NCCO)c2c1)CCCC3	69.8
COc1cc2nc3c(c(N4CCOCC4)c2cc1OC)CCCC3	78.6
CN1CCN(c2c3c(nc4ccc([N+](=O)[O-])cc24)CCCC3)CC1	66.4
Nc1nn(-c2c3c(nc4ccc([N+](=O)[O-])cc24)CCCC3)c2ncccc12	48
O=[N+]([O-])c1ccc2nc3c(c(Nc4[nH]nc5ncccc45)c2c1)CCCC3	81.5
O=C(CCN1CCN(c2ccccc2)CC1)Nc1n[nH]c2ncccc12	65.5
Cc1ccc2nc3c(c(N4CCCCC4)c2c1)CCCC3	61.9
O=C(CCN1CCOCC1)Nc1n[nH]c2ncccc12	71.8
Cc1ccc2nc3c(c(NCCN4CCOCC4)c2c1)CCCC3	54.6
O=C(CN1CCN(Cc2ccccc2)CC1)Nc1n[nH]c2ncccc12	65
O=C(CCN1CCN(Cc2ccccc2)CC1)Nc1n[nH]c2ncccc12	55.5

====

Molecular target: Cholinesterase (Homo sapiens, UniProt P06276)
Sequence (P06276 whole entry): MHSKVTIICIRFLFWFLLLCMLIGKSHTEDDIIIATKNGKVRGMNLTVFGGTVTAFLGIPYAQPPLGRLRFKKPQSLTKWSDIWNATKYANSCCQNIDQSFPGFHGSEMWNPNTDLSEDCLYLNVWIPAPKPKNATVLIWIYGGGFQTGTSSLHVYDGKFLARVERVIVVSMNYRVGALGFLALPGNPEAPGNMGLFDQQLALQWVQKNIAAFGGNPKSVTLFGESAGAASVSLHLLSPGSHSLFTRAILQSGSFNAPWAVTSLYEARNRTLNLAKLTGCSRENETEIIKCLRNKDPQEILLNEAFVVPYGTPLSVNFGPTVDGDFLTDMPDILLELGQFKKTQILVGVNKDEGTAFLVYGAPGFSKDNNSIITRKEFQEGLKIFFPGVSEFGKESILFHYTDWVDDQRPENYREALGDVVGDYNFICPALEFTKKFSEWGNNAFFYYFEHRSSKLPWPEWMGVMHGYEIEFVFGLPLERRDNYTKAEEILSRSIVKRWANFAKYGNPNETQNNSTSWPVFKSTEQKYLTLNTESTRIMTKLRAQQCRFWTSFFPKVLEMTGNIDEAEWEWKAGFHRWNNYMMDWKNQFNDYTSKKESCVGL
measured metric: IC50 (nM)

smiles structure	measured metric	value unit	quantitative readout
CC(=O)Nc1ccc2nc3c(c(N4CCCCC4)c2c1)CCCC3	IC50	nM	459
Cc1ccc2nc3c(c(N4CCCCC4)c2c1)CCCC3	IC50	nM	1990
Nc1nn(-c2c3c(nc4ccc([N+](=O)[O-])cc24)CCCC3)c2ncccc12	IC50	nM	5220
O=C(CCN1CCN(Cc2ccccc2)CC1)Nc1n[nH]c2ncccc12	IC50	nM	3570
O=C(CCN1CCN(c2ccccc2)CC1)Nc1n[nH]c2ncccc12	IC50	nM	782
O=C(CCN1CCOCC1)Nc1n[nH]c2ncccc12	IC50	nM	473
O=[N+]([O-])c1ccc2nc3c(c(Nc4[nH]nc5ncccc45)c2c1)CCCC3	IC50	nM	429
COc1cc2nc3c(c(N4CCOCC4)c2cc1OC)CCCC3	IC50	nM	767
CN1CCN(c2c3c(nc4ccc([N+](=O)[O-])cc24)CCCC3)CC1	IC50	nM	166
Cc1ccc2nc3c(c(NCCN4CCOCC4)c2c1)CCCC3	IC50	nM	3130
O=C(CN1CCN(Cc2ccccc2)CC1)Nc1n[nH]c2ncccc12	IC50	nM	2810
Cc1ccc2nc3c(c(NCCO)c2c1)CCCC3	IC50	nM	840

====

Target: Amyloid-beta precursor protein (Homo sapiens)
Experiment: Inhibition of amyloid beta (1 to 42 ) (unknown origin) self aggregation measured after 3 hrs by ThT fluorescence assay

smiles structure	IC50
O=C(CCN1CCOCC1)Nc1n[nH]c2ncccc12	2.13 µM
Cc1ccc2nc3c(c(N4CCCCC4)c2c1)CCCC3	6.7 µM
Nc1nn(-c2c3c(nc4ccc([N+](=O)[O-])cc24)CCCC3)c2ncccc12	31.8 µM
O=C(CCN1CCN(Cc2ccccc2)CC1)Nc1n[nH]c2ncccc12	13.3 µM
O=C(CN1CCN(Cc2ccccc2)CC1)Nc1n[nH]c2ncccc12	5.67 µM
O=[N+]([O-])c1ccc2nc3c(c(Nc4[nH]nc5ncccc45)c2c1)CCCC3	0.777 µM
Cc1ccc2nc3c(c(NCCO)c2c1)CCCC3	2.95 µM
O=C(CCN1CCN(c2ccccc2)CC1)Nc1n[nH]c2ncccc12	1.98 µM
CC(=O)Nc1ccc2nc3c(c(N4CCCCC4)c2c1)CCCC3	1.3 µM
Cc1ccc2nc3c(c(NCCN4CCOCC4)c2c1)CCCC3	15 µM
CN1CCN(c2c3c(nc4ccc([N+](=O)[O-])cc24)CCCC3)CC1	4.49 µM
COc1cc2nc3c(c(N4CCOCC4)c2cc1OC)CCCC3	1.23 µM

====

System: AChE
Format: toxicity, cell-based
Details: human, probe acetylthiocholine iodide; read-out: Ratio IC50
# selectivity ratio at 72 h listing for each entry below

smiles structure	target of assay	selectivity ratio at 72 h
Cc1ccc2nc3c(c(N4CCCCC4)c2c1)CCCC3	AChE	321
COc1cc2nc3c(c(N4CCOCC4)c2cc1OC)CCCC3	AChE	102
O=C(CCN1CCN(Cc2ccccc2)CC1)Nc1n[nH]c2ncccc12	AChE	735
O=[N+]([O-])c1ccc2nc3c(c(Nc4[nH]nc5ncccc45)c2c1)CCCC3	AChE	105
Cc1ccc2nc3c(c(NCCN4CCOCC4)c2c1)CCCC3	AChE	72.8
Nc1nn(-c2c3c(nc4ccc([N+](=O)[O-])cc24)CCCC3)c2ncccc12	AChE	800

====

pIC50: −log10 of the molar value.
Reported values: pIC50 for Acetylcholinesterase (Homo sapiens, UniProt P22303), one per item.

smiles structure	pIC50
Cc1ccc2nc3c(c(NCCN4CCOCC4)c2c1)CCCC3	6.88
O=C(Cn1nc2ncccc2c1NC(=O)Cn1nc2ncccc2c1NC(=O)CN1CCN(Cc2ccccc2)CC1)Nc1[nH]nc2ncccc12	4.74
COc1cc2nc3c(c(N4CCOCC4)c2cc1OC)CCCC3	7.21
Cc1ccc2nc3c(c(NCCN4CCCCC4)c2c1)CCCC3	5.59
O=[N+]([O-])c1ccc2nc3c(c(N4CCOCC4)c2c1)CCCC3	5.91
